B1: CLPTM1 (parent)
chain: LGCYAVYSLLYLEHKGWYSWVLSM

Variants of: B1
Assay Details: protein stability index of a GFP-peptide fusion (GPS, HEK-293T) (PSI 1-6); higher = more stable;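 further: lentivirally expressed fusions sorted by FACS into six bins by GFP to DsRed ratio, PSI derived from sequencing read proportions per bin multiplied by bin number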
Condition Label: c terminus: a fixed tail appended
Parameter: protein stability index
Numbers only.

Worked set:
>>> df
   sequence_change                parameter  observed
0             E13G  protein stability index      1.95
1             S23Y  protein stability index      2.49
2             E13D  protein stability index      2.51
3             E13T  protein stability index      3.83
4             E13C  protein stability index      2.64

Batch: protein stability index for all items listed.
1. L1D
2. G16P

1. 2.85
2. 2.75
